System: NCI-H460 lung | Read-out: GI50
measured.parameter: GI50

> print(dat)
                                   compound    target.desc  measured.parameter       result
1  C=C(C)C(=O)Nc1ccc(-c2c(-c3ccc(Oc4nccc(C)n4)c(F)c3)c3c(N)ncnc3n2C)cc1  NCI-H460 lung                GI50      3.05 µM
2  COc1cc(C(=O)O[C@H](C(=O)NCCCCNC(=O)[C@@H](OC(=O)c2cc(OC)cc3c(C)cccc23)[C@]2(C)CO2)[C@]2(C)CO2)c2cccc(C)c2c1  NCI-H460 lung                GI50  < 0.0354 µM
3  CCS(=O)(=O)c1ccc(OC)c(Nc2ncc(-c3cccc(F)c3)o2)c1  NCI-H460 lung                GI50      > 25 µM
4  FC(F)(F)c1cccc(-c2[nH]ncc2-c2nnnn2-c2ccccc2)c1  NCI-H460 lung                GI50      3.32 µM
5  N#CC1=C(N)OC2=C(CCOc3c2ccc2ccccc32)C1c1ccc(Br)cc1 (centres undefined)  NCI-H460 lung                GI50      28.4 µM
6  O=C(C(=CN1CCN(C(=O)c2ccco2)C1=S)C(=O)c1ccccc1)c1ccccc1  NCI-H460 lung                GI50      2.35 µM
7  CN1CCN(c2ccc(NC3=CC(=O)c4ncncc4C3=O)cc2)CC1  NCI-H460 lung                GI50     0.354 µM
8  O=C1C(=C([O-])c2ccccc2)C(=O)c2ccccc21.O=C1C(=C([O-])c2ccccc2)C(=O)c2ccccc21.[Ni+2]  NCI-H460 lung                GI50      33.9 µM
9    Oc1[nH]c2ccccc2c1C=Nc1ccc(-n2cncn2)cc1  NCI-H460 lung                GI50      > 23 µM

###

tested on: NCI/ADR-RES ovarian; test: NCI tumour cell line growth inhibition, 48 h
measured.parameter: TGI

> print(dat)
                                    molecule  measured.parameter    result
 1  O=C1CC(c2ccccc2)n2c(nc3ccccc32)N1 (stereo not given)                 TGI  > 100 µM
 2  COc1ccc(-c2[nH]ncc2Nc2cc(OC)c(OC)c(OC)c2)cc1                 TGI     25 µM
 3  Cc1cc(C)c2c(n1)S(=O)(=O)N(CCCN1CCN(c3cccc(Cl)c3)CC1)/C(=C(\O)c1ccc(Br)cc1)C2=O                 TGI  > 100 µM
 4  COc1ccc2c(c1)/C(=N/OC(C)=O)c1c-2c(OC)nc2ccccc12                 TGI  > 100 µM
 5            C(=N\NC1=NCCN1)/c1ccc2ccccc2c1                 TGI   39.4 µM
 6  CCOC(=O)c1cc(C)nc2c1c(=O)n(-c1ccccc1)c(=O)n2CCCCN1CCN(c2ncccn2)CC1                 TGI  > 100 µM
 7  O=C1/C(=C/c2ccc(C(F)(F)F)cc2)COc2ccc(O)c(O)c21                 TGI   6.59 µM
 8                NC1=Nc2ccccc2Sc2cccc(F)c21                 TGI  > 100 µM
 9  N#CC1=C(N)N(/N=C/c2ccco2)C(c2ccco2)C1(C#N)C#N (stereo not given)                 TGI   61.2 µM
10  FC(F)(F)c1cccc(-c2[nH]ncc2-c2nnnn2-c2ccccc2)c1                 TGI   25.2 µM

###

Catalogue of TGI readings, one per entry.
tested on: MDA-N; test: NCI tumour cell line growth inhibition, 48 h
measured.parameter: TGI (µM)

> print(dat)
                                   molecule  measured.parameter  measurement.unit  bound.operator  number
1  O=c1[nH]c(=O)n(C2CC(O)C(CO)O2)cc1Br (stereo not given)                 TGI                µM               >     100
2  COC(=O)C1(Cc2ccccc2)Cc2cc3c(cc2C1O)CCC3 (stereo not given)                 TGI                µM               =    34.6
3  O=S(=O)(/N=C(\NO)Nc1ccc(Cl)cc1)c1cc2ccccc2s1                 TGI                µM               =    36.6
4  CCOC(=O)N1CCC2(CC1)C[C@@](C(C)=O)(c1ccccc1)C(C)O2 (stereo not given in full)                 TGI                µM               >     100
5  CC1CN(CCO)CCN1c1ccccc1 (stereo not given)                 TGI                µM               >     100

###

tested on: K-562 leukemia; assay: NCI tumour cell line growth inhibition, 48 h
Where a SMILES comes first, the peptide text is derived from it. [ ]: non-standard residue; d: D form. The star is where a group is joined. ξ: configuration not given here. NMeF = CN[C@@H](Cc1ccccc1)C(=O)O; NMeV = CN[C@H](C(=O)O)C(C)C; ξNMeV = CNC(C(=O)O)C(C)C; Boc = CC(C)(C)OC(=O)*; OBn = c1ccc(CO*)cc1

compound	TGI
CCC(Nc1ncnc2nc[nH]c12)C(=O)O (stereo not given)	> 100 µM
CCN(C(=O)N[C@H](C(=O)N[C@@H](CSC)C(=O)N[C@@H](C)C(=O)OC)C(C)C)c1ccccc1	> 100 µM
O=C(CI)Nc1ccc(Br)cc1	> 100 µM
COC(=O)CC1=C(C)/C(=C/c2[nH]c(-c3ccc[nH]3)cc2OC)N=C1C	10.6 µM
COc1ccc(-c2oc3cc(O)c(OC)c(O)c3c(=O)c2O)cc1	> 53.5 µM
CNc1cc(-c2cccc(OC(F)(F)F)c2)nc2ccc(N3CCCC3)cc12	3.61 µM
CC(=O)c1c(C)c2cnc(Nc3ccc(N4CCNCC4)cn3)nc2n(C2CCCC2)c1=O	19.7 µM
CC1=C[C@@H]2c3c(c(O)c(O)c4oc5cc(O)cc(O)c5c(=O)c34)[C@@H](c3cc(O)c(O)c4oc5cc(O)cc(O)c5c(=O)c34)[C@@H]2C(C)(C)C1	80 µM
CC(C)C(C(=O)N(C)[C@H](C(=O)N1CCC[C@H]1C(=O)N(C)[C@@H](Cc1ccccc1)C(=O)OCc1ccccc1)C(C)C)N(C)C(=O)[C@@H](NC(=O)OC(C)(C)C)C(C)C (stereo not given in full) (Boc-V[ξNMeV][NMeV]P[NMeF]-OBn)	12.6 µM
O=C1CC(c2ccccc2)n2c(nc3ccccc32)N1 (stereo not given)	> 100 µM
COc1ccc(NC(=O)C(=O)Cc2ccc([N+](=O)[O-])c([N+](=O)[O-])c2CC(=O)C(=O)Nc2ccc(OC)cc2OC)c(OC)c1	> 100 µM
CC(=O)[CH-]C(=O)c1ccccc1.CC(=O)[CH-]C(=O)c1ccccc1.CC(=O)[CH-]C(=O)c1ccccc1.[Ga+3]	51.5 µM
O=C(NCCNCCO)c1ccc(Nc2nc3ccccc3c3occc23)cc1	6.71 µM
COc1cccc(CCNc2c(C#N)c3n(c4ccccc4[n+]3C)c3ncccc23)c1	> 100 µM
COC(=O)c1c(O)ccc2c1c1c(n2Cc2cccc(C)c2)C(=O)c2ccccc2C1	> 75 µM
C(=N\Nc1ccc2ccccc2n1)/c1ccccn1	> 39.1 µM
Cc1c(C(N)=O)sc2nc(C)n(/N=c3\scc(-c4ccccc4)n3Cc3ccccc3)c(=O)c12	> 100 µM
O=C1NC(=NCCc2ccc(Br)cc2)S/C1=C\c1ccc2ncccc2c1	> 25 µM
C(=C/c1nnnn1-c1ccccc1)/Nc1ccccc1	> 100 µM
CN1C(=O)C23CCCC2CC1(c1ccccc1)S3 (stereo not given)	> 100 µM
CCC(=O)Nc1nnc(Cc2ccc(OC)c(OC)c2)s1	> 100 µM
CCOC(=O)NN(C(=O)OCC)C(C(=O)c1ccccc1)N(NC(=O)OCC)C(=O)OCC	> 100 µM
Cc1c(-c2ccccn2)ccc2ccccc12	> 100 µM
O=c1[nH]c(=O)n(C2CC(O)C(CO)O2)cc1Br (stereo not given)	> 100 µM
CCOC(=O)c1nc2cc(Cl)ccc2[nH]c1=O	> 100 µM
NC(=O)c1ncn(C2OC(CO)C(O)C2O)c1O (stereo not given)	> 100 µM
C=CCSC(C)=O	> 100 µM
CCCCOC(=O)NC(=O)c1cn(CCCOC(=O)CCCCCCCCC(=O)OCCCn2cc(C(=O)NC(=O)OCCCC)c(=O)n(C)c2=O)c(=O)n(C)c1=O	> 100 µM
O=C1c2cccnc2-c2nccc3c2c1nc1ccccc13	0.667 µM
O=C(O)c1nn(-c2ccccc2)nc1-c1nn(-c2ccccc2)nc1C(=O)O	> 100 µM
COC1/C(=C\C(C)=O)c2ccccc2N1C(C)=O (stereo not given)	> 100 µM
COc1cc(O)c(C(=O)/C=C/c2ccc(OC)c(OCc3ccccc3)c2)c(OC)c1	> 100 µM
CCOC(=O)/C=C1/SC(=Nc2ccc(C#N)cc2)N(Cc2ccco2)C1=O	11.4 µM
COc1cccc(OC)c1NC(=O)C(=O)Nn1c(NNC(=O)c2ccncc2)nc2ccccc2c1=O	> 100 µM
NS(=O)(=O)c1ccc(N=Nc2c[nH]c(=O)c(O)c2)cc1	> 100 µM
O=C1[C@@H]2C(c3ccccc3[N+](=O)[O-])=NO[C@@H]2C(=O)N1c1ccc(Cc2ccc(N3C(=O)[C@H]4C(c5ccccc5[N+](=O)[O-])=NO[C@H]4C3=O)cc2)cc1	> 100 µM
COc1cc(C2NC(=O)C(C#N)=C(Nc3cccc(C)c3)S2)ccc1O (stereo not given)	> 100 µM
N#CC1=C(N)OC2=C(CCOc3c2ccc2ccccc32)C1c1ccc(Br)cc1 (stereo not given)	54.3 µM
C=C1CCOC2(C(O)C(C)(O)CO)NC(=O)C1(O)NC2=O (stereo not given)	> 100 µM
COc1ccc(Nc2nc(N)c(C(=O)c3ccc(Cl)cc3)s2)cc1	> 100 µM
